Value source: PubChem BioAssay AID1445

# tested.target: Aminopeptidase N (Plasmodium falciparum (isolate 3D7)) (UniProt O96935)
# Sequence (O96935 whole entry, looked up): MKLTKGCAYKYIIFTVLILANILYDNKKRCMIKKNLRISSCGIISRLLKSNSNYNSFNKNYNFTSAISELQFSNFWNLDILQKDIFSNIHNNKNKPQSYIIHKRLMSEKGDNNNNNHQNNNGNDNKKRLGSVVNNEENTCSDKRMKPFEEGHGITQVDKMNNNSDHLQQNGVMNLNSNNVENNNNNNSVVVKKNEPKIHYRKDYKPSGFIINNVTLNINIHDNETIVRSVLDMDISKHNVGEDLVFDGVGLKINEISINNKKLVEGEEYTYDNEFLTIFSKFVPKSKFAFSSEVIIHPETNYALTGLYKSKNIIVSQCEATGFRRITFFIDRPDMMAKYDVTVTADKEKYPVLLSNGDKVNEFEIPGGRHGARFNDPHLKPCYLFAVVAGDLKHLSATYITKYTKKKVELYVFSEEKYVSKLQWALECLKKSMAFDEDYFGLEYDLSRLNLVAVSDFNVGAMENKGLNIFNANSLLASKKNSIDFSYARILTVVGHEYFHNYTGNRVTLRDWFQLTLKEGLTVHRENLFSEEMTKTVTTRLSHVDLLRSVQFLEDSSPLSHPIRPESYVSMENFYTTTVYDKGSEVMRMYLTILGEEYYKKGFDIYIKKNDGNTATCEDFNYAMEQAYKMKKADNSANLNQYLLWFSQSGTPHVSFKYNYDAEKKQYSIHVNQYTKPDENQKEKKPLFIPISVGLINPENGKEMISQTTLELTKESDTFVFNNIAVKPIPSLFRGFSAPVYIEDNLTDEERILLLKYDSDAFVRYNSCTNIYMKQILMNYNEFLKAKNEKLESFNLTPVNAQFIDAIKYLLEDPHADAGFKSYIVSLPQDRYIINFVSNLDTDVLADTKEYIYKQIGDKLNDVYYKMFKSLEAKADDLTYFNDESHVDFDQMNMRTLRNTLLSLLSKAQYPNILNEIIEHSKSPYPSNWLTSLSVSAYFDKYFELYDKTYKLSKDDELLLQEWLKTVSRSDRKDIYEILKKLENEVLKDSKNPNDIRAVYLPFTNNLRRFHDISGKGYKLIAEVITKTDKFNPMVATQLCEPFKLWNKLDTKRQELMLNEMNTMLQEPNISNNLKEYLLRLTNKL
# assay.procedure: malaria alanyl aminopeptidase activity blockers – biochemical, fluorogenic H-Leu-NHMec substrate, 1536-well (AID 1445)
# condition.description: recombinant M1AAP, H-Leu-NHMec fluorogenic kinetic assay; at 30 µM
Out of some 220,000 compounds screened, about 910 (0.41%) were called active.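 The calls were made as follows: active = primary inhibition above the hit cutoff, then over 50% inhibition at one or more dose response concentrations (cut at about 23% in these data, passing the limit was not always enough); inconclusive = conflicting primary data, or primary hits not chosen for dose response; inactive = low primary inhibition, or under 50% at every dose.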 Shown is part of a subset that was picked to be rich in actives. Results with a measured potency or affinity are listed apart.
Hi there, use one of these labels in your reply, thanks! active, inactive

Kindly provide the recorded test outcome for the following molecule: `CCOC(=O)N1CCN(c2c(NCc3ccc(Cl)cc3)c(=O)c2=O)CC1`
inactive

Dear all, I need the recorded test outcome for `O=C1Nc2ccccc2S/C1=C/Nc1cccc(Cl)c1` , thank you.
inactive

Check the results log: what was the call for `Cc1ccc(N/C=C2/Sc3ccccc3NC2=O)cc1` ?
inactive

Fill in: this test's call for `COc1ccc(NC(C)=O)cc1S(=O)(=O)N1CCN(C/C=C/c2ccccc2)CC1` is ___
inactive

Dear colleague, could you share the recorded outcome for `O=C(Cc1cccs1)Nc1nnc(-c2ccc(F)cc2)s1` when you have a moment?
inactive

Assay outcome for `CN(CC(=O)NC1CCCCC1)S(=O)(=O)c1ccc(Cl)cc1` : what was it?
inactive

# outcome recorded in this test, key = `NS(=O)(=O)c1ccc(CCNC(=O)CSc2ccc(Cl)cc2)cc1`
inactive

Query: recorded result category for `COc1cc(S(=O)(=O)NCc2cccnc2)c(OC)cc1Br` in this test
inactive

Which outcome was entered for the molecule `CCc1c(C)c2cc(Cl)c(O)c(CN3CCCCC3)c2oc1=O` in this test?
inactive

I would be grateful if you could indicate the recorded call for `COc1cc(/C=C2/NC(=O)N(Cc3ccccc3F)C2=O)cc(OC)c1O` .
inactive

For this molecule, state the assay outcome: `COc1cc(C=C2C(=O)c3ccccc3C2=O)ccc1O`
inactive

What classification did `COc1ccc(C(=O)N2CCC(n3c(C)nc4cc(F)ccc43)CC2)cc1` end up with in this test?
inactive

State the result this test recorded for `Cc1c(C)c2cc(Cl)c(O)c(CN3CCCCC3)c2oc1=O` .
inactive

Recorded test call requested for `CCOc1ccc(NC(=O)c2ccccc2NC(=O)CN(C)CC(=O)Nc2ccc(C)cc2)cc1`
inactive

Would you mind telling me which call this test gave CCC(C)(C)C1CCc2c(sc(NC(=O)c3cccs3)c2C(N)=O)C1 (stereo not drawn) ?
inactive

What outcome does the record of this test show for `O=c1c2ccccc2nc(SCc2cn3ccsc3n2)n1-c1ccc(F)cc1` ?
inactive

Recorded test outcome, item `COc1cccc(NC(=S)N(CCc2ccc(OC)c(OC)c2)Cc2ccccn2)c1`
inactive

# outcome recorded in this test, key = `C=CCn1c(-c2ccccc2[N+](=O)[O-])n[nH]c1=S`
inactive

Called result for `Cc1ccc(-n2c(SCc3cn4ccsc4n3)nc3ccccc3c2=O)cc1`
active

Tell me the assay call for `CC(C)(C)NC(=O)Cn1c(SCC(N)=O)nc2ccccc21` please.
inactive

Which outcome did this test record for the molecule CC(NC(=O)COc1ccc(N(C)S(=O)(=O)c2ccccc2)cc1)c1ccccc1 (stereo not drawn) ?
inactive

Tell me the recorded outcome of this test for `O=c1c2ccccc2nc(SCc2cn3ccsc3n2)n1-c1ccccc1` .
inactive

Each molecule tested received a call. Report the one for `CCOC(=O)N1CCN(c2c(NCc3ccccc3OC)c(=O)c2=O)CC1` .
inactive
